biological target: Dual specificity mitogen-activated protein kinase kinase 7 (Homo sapiens); conditions: at 1 µM
property-measured: residual activity

State the recorded residual activity for this entry: O=C1c2ccccc2-c2nc3nnnn3nc21
66%

State the recorded residual activity for this entry: COc1cc2ncnc(Nc3ccc(OCc4ccccc4)cc3)c2cc1OC
102%

State the recorded residual activity for this entry: COC(=O)[C@@]1(O)C[C@H]2O[C@]1(C)n1c3ccccc3c3c4c(c5c6ccccc6n2c5c31)C(=O)NC4
7%

State the recorded residual activity for this entry: C[S+]([O-])c1ccc(-c2nc(-c3ccc(F)cc3)c(-c3ccncc3)[nH]2)cc1 (stereo unspecified)
86%

State the recorded residual activity for this entry: COc1ccc2c(c[n+](C)c3c4cc5c(cc4ccc23)OCO5)c1OC
110%

State the recorded residual activity for this entry: O=c1[nH]c2ccccc2n1C1CCN(Cc2ccc(-c3nc4cc5[nH]cnc5cc4nc3-c3ccccc3)cc2)CC1
112%

====

target: Protein kinase C beta type (Homo sapiens); conditions: at 10 µM
# residual activity >= 90% gives label 1, anything below gives label 0

Please check the record C[S+]([O-])c1ccc(-c2nc(-c3ccc(F)cc3)c(-c3ccncc3)[nH]2)cc1 (configuration not stated) and state if its residual activity is at or above 90%.
label 0

Please check the record COC(=O)[C@@]1(O)C[C@H]2O[C@]1(C)n1c3ccccc3c3c4c(c5c6ccccc6n2c5c31)C(=O)NC4 and state if its residual activity is at or above 90%.
label 0

Please check the record CCc1nc(-c2ccc(OC)cc2)[nH]c1-c1ccncc1 and state if its residual activity is at or above 90%.
label 1

Please check the record CC(C)(C)c1cc(C=C(C#N)C#N)cc(Br)c1O and state if its residual activity is at or above 90%.
label 1

Please check the record O=C1Nc2ccc3ncsc3c2/C1=C/c1c[nH]cn1 and state if its residual activity is at or above 90%.
label 0

Please check the record CCn1cnc2c(Nc3cccc(Cl)c3)nc(N[C@@H]3CCCC[C@@H]3N)nc21 and state if its residual activity is at or above 90%.
label 0

====

target: Insulin receptor (Homo sapiens) (UniProt P06213); settings: at 1 µM
Sequence (P06213 28-758 limits assumed): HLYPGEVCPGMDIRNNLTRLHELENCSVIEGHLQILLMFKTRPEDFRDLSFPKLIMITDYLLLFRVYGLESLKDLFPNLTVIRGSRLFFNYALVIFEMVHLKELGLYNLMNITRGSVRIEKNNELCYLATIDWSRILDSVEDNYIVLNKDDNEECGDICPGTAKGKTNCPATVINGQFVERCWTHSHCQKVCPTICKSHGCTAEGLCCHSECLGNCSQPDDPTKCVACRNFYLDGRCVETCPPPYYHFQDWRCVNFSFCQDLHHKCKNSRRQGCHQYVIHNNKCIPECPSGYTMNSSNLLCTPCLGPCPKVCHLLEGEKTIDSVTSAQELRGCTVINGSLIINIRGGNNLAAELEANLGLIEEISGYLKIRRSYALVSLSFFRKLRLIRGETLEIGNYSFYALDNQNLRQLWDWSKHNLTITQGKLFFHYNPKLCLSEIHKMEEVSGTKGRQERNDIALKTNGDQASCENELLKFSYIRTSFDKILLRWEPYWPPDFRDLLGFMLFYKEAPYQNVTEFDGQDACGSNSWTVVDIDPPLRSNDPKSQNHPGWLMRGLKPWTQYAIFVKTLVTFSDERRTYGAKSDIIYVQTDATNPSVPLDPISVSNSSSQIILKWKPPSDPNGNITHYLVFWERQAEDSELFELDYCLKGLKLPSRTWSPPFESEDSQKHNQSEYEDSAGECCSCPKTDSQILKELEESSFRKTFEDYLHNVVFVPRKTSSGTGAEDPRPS
Sequence (P06213 763-1382 limits assumed): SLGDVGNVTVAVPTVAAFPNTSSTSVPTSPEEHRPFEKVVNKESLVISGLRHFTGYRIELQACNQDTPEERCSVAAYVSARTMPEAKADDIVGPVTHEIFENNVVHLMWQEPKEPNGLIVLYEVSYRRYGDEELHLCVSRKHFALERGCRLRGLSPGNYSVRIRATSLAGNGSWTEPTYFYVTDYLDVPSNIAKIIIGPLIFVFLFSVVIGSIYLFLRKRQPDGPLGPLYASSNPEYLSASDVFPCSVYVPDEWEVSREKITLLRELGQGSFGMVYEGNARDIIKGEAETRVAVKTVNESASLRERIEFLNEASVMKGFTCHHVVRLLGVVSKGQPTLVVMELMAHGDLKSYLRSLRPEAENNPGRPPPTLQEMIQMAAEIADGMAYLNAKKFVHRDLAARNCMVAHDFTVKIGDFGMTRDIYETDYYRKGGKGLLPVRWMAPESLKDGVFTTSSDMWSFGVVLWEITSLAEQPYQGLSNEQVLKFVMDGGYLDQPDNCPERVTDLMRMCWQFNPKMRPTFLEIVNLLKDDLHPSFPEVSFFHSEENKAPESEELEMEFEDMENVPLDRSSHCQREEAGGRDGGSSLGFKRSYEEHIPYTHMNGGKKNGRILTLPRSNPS
# residual activity >= 90% gives true, anything below gives false

Please check the record COc1cc(OC)c(/C=C2\C(=O)Nc3ccccc32)c(OC)c1 and state if its residual activity is at or above 90%.
false

Please check the record O=c1[nH]c2ccccc2n1C1CCN(Cc2ccc(-c3nc4cc5[nH]cnc5cc4nc3-c3ccccc3)cc2)CC1 and state if its residual activity is at or above 90%.
true

Please check the record O=C1Nc2ccc3ncsc3c2/C1=C/c1c[nH]cn1 and state if its residual activity is at or above 90%.
false

Please check the record c1cc(-c2cnn3cc(-c4ccc(OCCN5CCCCC5)cc4)cnc23)ccn1 and state if its residual activity is at or above 90%.
true

Please check the record O=C1NC(=O)c2c1c1c3ccccc3n3c1c1c2c2ccccc2n1C1CCC3O1 and state if its residual activity is at or above 90%.
true

Please check the record CC(C)(C)c1cc(C=C(C#N)C#N)cc(Br)c1O and state if its residual activity is at or above 90%.
true

Please check the record COC(=O)[C@@]1(O)C[C@H]2O[C@]1(C)n1c3ccccc3c3c4c(c5c6ccccc6n2c5c31)C(=O)NC4 and state if its residual activity is at or above 90%.
false
